Biological target: Leu336Ala GPR84 (GPR84-Gi2 fusion protein) (Homo sapiens, UniProt Q9NQS5, L336A)
Assay: Competition binding assay with orthosteric antagonist [3H]140
Protocol: Binding was initiated by the addition of 5 μg membrane protein generated from Flp-In™ T-REx™ cells induced to express the receptor construct of interest with 100 ng/ml doxycycline. Nonspecific binding of the radioligand was determined in the presence of 10 μM compound 837. […] Radioactivity was quantified by liquid scintillation spectrometry.
propertyLabel: Ki (nM)
Give the value in nM but do not write nM after it.

Ask: Give the reported value of Ki for this record: `[O-][n+]1cc(O)cc(CCc2ccc(Cl)c(C(F)(F)F)c2)c1`
Result: 1.51

====

Assay: pKa measurement (Sirius T3 UV-metric and pH-metric titration)
Format: physicochemical
Settings: 25 °C, ionic strength 0.15 M; read-out: measured pKa of the hydroxyl group
propertyLabel: pKa
API doc: respond with a numeric literal and nothing else, no unit.

Ask: Determine from records and report pKa for `[O-][n+]1cc(O)cc(CCc2ccc(Cl)c(C(F)(F)F)c2)c1`
Result: 6.26

====

Biological target: GPR84 (Homo sapiens, UniProt Q9NQS5)
Assay: CHO-K1-based HitHunter cAMP inhibition assay
Assay type: cell-based
Settings: wild type GPR84; normalised to capric acid (100 μM); read-out: cAMP %Emax ± SEM
Protocol: CHO-K1 cells stably expressing human GPR84 (DiscoverX 95-0158C2) were seeded in 384-well plates at 15,000 cells per well in 20 μL of F12 medium supplemented with 10% fetal bovine serum (FBS), 19 mM HEPES, and 1% penicillin-streptomycin. […] Compounds were dissolved in DMSO and diluted appropriately. cAMP levels were quantified using the HitHunter® cAMP Assay for Small Molecules (DiscoverX 90-0075SM2) according to the manufacturer’s protocol. […]
propertyLabel: Emax (%)
Entry rule: numbers only, all in %.

Ask: Please look at this compound and report its Emax: `[O-][n+]1cc(O)cc(CCCCc2ccc(Cl)c(Cl)c2)c1`
Result: 102

Ask: Identify Emax associated with the compound `CC(C)c1cc(CCCCc2cc(O)c[n+]([O-])c2)ccc1Cl`
Result: 94

Ask: Return the recorded Emax value; entry: `CC1(c2cc(CCCCc3cc(O)c[n+]([O-])c3)ccc2Cl)CC1`
Result: 107

Ask: Name the recorded Emax of the compound listed here: `CCCCCCCc1cc(O)c[n+]([O-])c1`
Result: 100

Ask: Given the compound `Cc1cc(CCCc2cc(O)c[n+]([O-])c2)ccc1Cl` , write its reported Emax.
Result: 98

Ask: Please indicate Emax recorded for `CCc1cc(CCCCc2cc(O)c[n+]([O-])c2)ccc1Cl`
Result: 103

Ask: For the compound `[O-][n+]1cc(O)cc(CCCCc2ccc(Cl)c(C3CC3)c2)c1` , report Emax.
Result: 103

Ask: State its Emax: `C#Cc1cc(CCCCc2cc(O)c[n+]([O-])c2)ccc1Cl`
Result: 106

Ask: Give Emax for `[O-][n+]1cc(O)cc(CCCCc2ccc(Cl)c(CF)c2)c1`
Result: 107

Ask: Annotate the compound `[O-][n+]1cc(O)cc(CCCCc2ccc(Cl)c(C(F)F)c2)c1` with its measured Emax.
Result: 95

Ask: Input `[O-][n+]1cc(O)cc(CCCCc2ccc(Cl)c(Br)c2)c1` , output reported Emax.
Result: 98

Ask: State its Emax for this compound: `[O-][n+]1cc(O)cc(CCCCc2ccc(Cl)c(F)c2)c1`
Result: 99

Ask: Complete the entry with Emax for `[O-][n+]1cc(O)cc(CCc2ccc(Cl)c(C(F)(F)F)c2)c1`
Result: 97

Ask: Query Emax for `C=Cc1cc(CCCCc2cc(O)c[n+]([O-])c2)ccc1Cl`
Result: 97

Ask: Write down Emax measured for item `[O-][n+]1cc(O)cc(CCCCc2ccc(Cl)c(CO)c2)c1`
Result: 101

Ask: // fetch Emax given entry `[O-][n+]1cc(O)cc(CCCCc2ccc(Cl)cc2)c1`
Result: 97

====

Target: GPR84 (Homo sapiens, UniProt Q9NQS5)
Experiment: CHO-K1-based PathHunter β-arrestin-2 recruitment assay
Format: cell-based
Set-up: host or cells: CHO-K1
Conditions: wild type GPR84; CHO-K1 PathHunter; read-out: β-arrestin-2 pEC50 ± SEM (converted)
propertyLabel: EC50 (nM)
Field format: number, assumed nM, no unit text.

Ask: Supply reported EC50 belonging to this compound: `[O-][n+]1cc(O)cc(CCCCc2ccc(Cl)c(F)c2)c1`
Result: 70.8

Ask: Complete the entry with EC50 for `[O-][n+]1cc(O)cc(CCCCc2ccc(Cl)cc2)c1`
Result: 110

Ask: Query EC50 for `CCc1cc(CCCCc2cc(O)c[n+]([O-])c2)ccc1Cl`
Result: 39.8

Ask: Find the measured EC50 of `[O-][n+]1cc(O)cc(CCCCc2ccc(Cl)c(Br)c2)c1` and report it.
Result: 138

Ask: Answer with the recorded EC50 for the compound listed here: `C#Cc1cc(CCCCc2cc(O)c[n+]([O-])c2)ccc1Cl`
Result: 37.2

====

Field: EC50. Provide a value for each of the molecules that follow.
Target: GPR84 Y332F (Homo sapiens, UniProt Q9NQS5, Y332F)
Construct: FLAG (N); Gαi2-Cys352Ile (fusion partner) (C); expressed in transfected cells
Test: [35S]GTPγS binding assay
Assay type: biochemical
Conditions: [35S]GTPγS; Y332F
Your answer should be a plain number; it is taken to be in nM.

Ask: Give reported EC50 value for [O-][n+]1cc(O)cc(CCc2ccc(Cl)c(C(F)(F)F)c2)c1 [OX04529]
Result: 2.57

Ask: Respond only with EC50 recorded for Cc1cc(CCCc2cc(O)c[n+]([O-])c2)ccc1Cl [OX04954]
Result: 4.17

====

Molecular target: GPR84 L336A (GPR84-Gi2α fusion protein) (Homo sapiens, UniProt Q9NQS5, L336A)
Construct: FLAG (N); Gαi2-Cys352Ile (fusion partner) (C); expressed in transfected cells
Assay: [35S]GTPγS binding assay
Format: biochemical
Settings: Leu336Ala, read-out: EC50
propertyLabel: EC50

Ask: Please supply the value of reported EC50 for the item `[O-][n+]1cc(O)cc(CCc2ccc(Cl)c(C(F)(F)F)c2)c1`
Result: ~0.1 nM

====

Biological target: GPR84 Y332F (Homo sapiens, UniProt Q9NQS5, Y332F)
Construct: FLAG (N); Gαi2-Cys352Ile (fusion partner) (C); expressed in transfected cells
Experiment: BRET β-arrestin-1 recruitment assay, HEK293T cells
Type: cell-based
propertyLabel: EC50 (nM)
Entry rule: numbers only, all in nM.

Ask: For the compound `Cc1cc(CCCc2cc(O)c[n+]([O-])c2)ccc1Cl` , give its reported EC50.
Result: 50.1

====

Molecular target: GPR84-WT (GPR84-Gi2α fusion protein) (Homo sapiens)
Experiment: [35S]GTPγS binding assay
Type: biochemical
Settings: pEC50 ± SEM, [35S]GTPγS; GPR84-WT; Extended Data Tables 1 and 5
propertyLabel: pEC50
In plain terms, pEC50 is the concentration in mol/L turned into minus its base-10 logarithm.

Ask: Specify measured pEC50 for `[O-][n+]1cc(O)cc(CCc2ccc(Cl)c(C(F)(F)F)c2)c1` .
Result: 8.93

====

Target: GPR84 (Homo sapiens, UniProt Q9NQS5)
Assay: CHO-K1-based HitHunter cAMP inhibition assay
Type: cell-based
Settings: wild type GPR84; CHO-K1 cells; forskolin 25 μM; read-out: cAMP pEC50 ± SEM (converted)
With a cut-off of 0.01 nM, any EC50 strictly below it is called Yes; any EC50 meeting it or above is called No.

Ask: Identify whether the molecule `[O-][n+]1cc(O)cc(CCCCc2ccc(Cl)c(Br)c2)c1` records EC50 below 0.01 nM.
Result: Yes

Ask: Lab note: confirm whether the reported EC50 for this molecule is below 0.01 nM, equality not counting. molecule: `CCc1cc(CCCCc2cc(O)c[n+]([O-])c2)ccc1Cl`
Result: No

Ask: Identify whether the molecule `C=Cc1cc(CCCCc2cc(O)c[n+]([O-])c2)ccc1Cl` records EC50 below 0.01 nM.
Result: Yes

Ask: Is the reported EC50 for `CC1(c2cc(CCCCc3cc(O)c[n+]([O-])c3)ccc2Cl)CC1` strictly below 0.01 nM?
Result: No

====

Assign EC50 to each entry below.
Biological target: GPR84 (Homo sapiens, UniProt Q9NQS5)
Assay: CHO-K1-based PathHunter β-arrestin-2 recruitment assay
Format: cell-based
Design: host or cells: CHO-K1
Details: wild type GPR84; CHO-K1 PathHunter; read-out: β-arrestin-2 pEC50 ± SEM (converted)
Record the value in nM, omitting the unit from your answer.

Ask: Answer with EC50 of `[O-][n+]1cc(O)cc(CCCCc2ccc(Cl)c(Cl)c2)c1` measured for GPR84 (Homo sapiens, UniProt Q9NQS5).
Result: 209

Ask: Lab note: record EC50 of `Cc1cc(CCCc2cc(O)c[n+]([O-])c2)ccc1Cl` tested on GPR84 (Homo sapiens, UniProt Q9NQS5).
Result: 93.3

Ask: System GPR84 (Homo sapiens, UniProt Q9NQS5). Read-out EC50. Item `[O-][n+]1cc(O)cc(CCCCc2ccc(Cl)c(CF)c2)c1` . Report value.
Result: 447

Ask: State EC50 (GPR84 (Homo sapiens, UniProt Q9NQS5)) of `[O-][n+]1cc(O)cc(CCCCc2ccc(Cl)c(C(F)F)c2)c1` .
Result: 151

Ask: Please indicate recorded EC50 of `C=Cc1cc(CCCCc2cc(O)c[n+]([O-])c2)ccc1Cl` measured with GPR84 (Homo sapiens, UniProt Q9NQS5).
Result: 178

Ask: Answer with EC50 of `[O-][n+]1cc(O)cc(CCCCc2ccc(Cl)c(CO)c2)c1` measured for GPR84 (Homo sapiens, UniProt Q9NQS5).
Result: 263
